Listed here: items and their measured IC50.
- MEASURED ON: p38MAPKγ (MAPK12) (Homo sapiens)
- Construct: purchased Life Technologies
- Sequence (P53778 whole entry): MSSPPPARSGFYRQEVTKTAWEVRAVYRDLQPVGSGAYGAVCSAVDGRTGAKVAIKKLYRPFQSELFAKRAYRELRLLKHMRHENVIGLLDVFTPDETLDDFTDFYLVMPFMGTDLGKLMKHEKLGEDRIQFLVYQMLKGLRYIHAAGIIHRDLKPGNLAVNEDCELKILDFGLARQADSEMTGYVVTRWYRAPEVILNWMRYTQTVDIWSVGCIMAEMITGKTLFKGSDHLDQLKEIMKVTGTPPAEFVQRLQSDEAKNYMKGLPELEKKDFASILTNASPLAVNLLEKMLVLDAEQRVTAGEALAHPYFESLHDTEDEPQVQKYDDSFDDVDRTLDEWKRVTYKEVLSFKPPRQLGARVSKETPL
- EXPERIMENTAL PROTOCOL: p38 MAPKγ enzyme inhibition (Z-LYTE FRET)
- Format: biochemical
- CONDITION DETAILS: Table 2B, unit inferred; read-out: p38 MAPKγ (Enzyme Profile)
Provide only the numeric value, understood in nM.

SMILES REPR	UNIT ABBREV	IC50
Cc1ccc(-n2nc(C(C)(C)C)cc2NC(=O)Nc2ccc(OCc3ccnc(Nc4cnc(C(=O)N5CCCN(C)CC5)cn4)c3)c3ccccc23)cc1	nM	13

(Q) Find the measured IC50 of `CNc1cncc(Nc2cc(COc3ccc(NC(=O)Nc4cc(C(C)(C)C)nn4-c4ccc(C)cc4)c4ccccc34)ccn2)n1` and report it.
(A) 173
